target desc: T1, hAMY3R (human, UniProt P30988)
T1 sequence 1: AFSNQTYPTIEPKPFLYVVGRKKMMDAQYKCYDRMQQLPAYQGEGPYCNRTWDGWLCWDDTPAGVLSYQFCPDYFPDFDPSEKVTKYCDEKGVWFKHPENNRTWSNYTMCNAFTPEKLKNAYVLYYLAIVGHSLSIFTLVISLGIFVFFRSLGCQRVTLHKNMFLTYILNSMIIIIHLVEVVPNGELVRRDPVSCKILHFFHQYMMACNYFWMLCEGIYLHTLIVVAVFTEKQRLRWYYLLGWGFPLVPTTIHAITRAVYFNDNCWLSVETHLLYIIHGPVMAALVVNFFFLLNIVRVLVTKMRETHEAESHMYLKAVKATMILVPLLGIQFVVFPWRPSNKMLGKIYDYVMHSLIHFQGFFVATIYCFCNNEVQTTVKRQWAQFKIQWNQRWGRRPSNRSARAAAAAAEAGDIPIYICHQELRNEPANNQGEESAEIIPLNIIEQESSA
T1 sequence 2: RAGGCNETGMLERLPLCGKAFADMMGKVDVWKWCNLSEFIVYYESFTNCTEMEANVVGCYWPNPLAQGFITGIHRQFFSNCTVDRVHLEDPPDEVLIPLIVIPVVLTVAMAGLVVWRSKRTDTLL
test: cell-based or functional assay
Bridge positions count the residues as written; N and C are the ends. Square brackets hold non-standard residues; d marks the D form. Ends that are not written are not given here. Hyp = O=C(O)[C@@H]1C[C@@H](O)CN1; Cit = NC(=O)NCCC[C@H](N)C(=O)O
Measured hAMY3R EC50 (cAMP) accompanies every entry in the list below.
Please reply with the bare figure in pM and do not write the unit itself.

>  <binder>
KCNTATCTVQ[Cit]LAHQIYQFTKDKDNVAPPTNVGSNG[Hyp]-NH2 (disulfide 2-7 (inferred); ends not checked) [SEQ ID NO: 253]

>  <measured value>
4

$$$$

GCRFGTCTVQ[Cit]LAHFLYQFTDKDKDNVAPRTNVGPQGY-NH2 (disulfide 2-7 (inferred); ends not checked) [SEQ ID NO: 263] yielded hAMY3R EC50 (cAMP) of 5

hAMY3R EC50 (cAMP) in this record for GCRTGTCTVQRLAHQIYQFTDKDKDNVAPRSKVGPQGY [SEQ ID NO: 129] : 29
